B1: APBB1IP (parent)
chain: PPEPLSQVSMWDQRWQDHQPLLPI

Variants of: B1
Procedure Details: protein stability index of a GFP-peptide fusion (GPS, HEK-293T) (PSI 1-6); higher = more stable;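 note: lentivirally expressed fusions sorted by FACS into six bins by GFP to DsRed ratio, PSI derived from sequencing read proportions per bin multiplied by bin number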
Measurement Context: c terminus: a fixed tail appended

{"columns": ["Seq", "protein stability index"],
 "data": [
  ["PPEPGSQVSMWDQRWQDHQPLLPI [L5G]", 3.05],
  ["PDEPLSQVSMWDQRWQDHQPLLPI [P2D]", 2.95],
  ["TPEPLSQVSMWDQRWQDHQPLLPI [P1T]", 3.37],
  ["VPEPLSQVSMWDQRWQDHQPLLPI [P1V]", 2.23],
  ["PPEPLSQVSMWDQRWQDAQPLLPI [H18A]", 2.79],
  ["PPEPLSQVKMWDQRWQDHQPLLPI [S9K]", 3.09],
  ["PPEPLAQVSMWDQRWQDHQPLLPI [S6A]", 3.09],
  ["PPEPLSQVSMWDQRWQDHQPLLPM [I24M]", 3.24],
  ["PPFPLSQVSMWDQRWQDHQPLLPI [E3F]", 2.4],
  ["PPEPVSQVSMWDQRWQDHQPLLPI [L5V]", 2.99],
  ["PPEPLSQVSMWDQRWQDHHPLLPI [Q19H]", 2.48],
  ["PPEPLSQVSMWDQRWQDTQPLLPI [H18T]", 3.44],
  ["MPEPLSQVSMWDQRWQDHQPLLPI [P1M]", 3.28],
  ["PPEPLSQVSMWDQRWQEHQPLLPI [D17E]", 2.97],
  ["PPEPLSQVSMWDQRWFDHQPLLPI [Q16F]", 2.83],
  ["PPEPLSQVSMWDQRWQDHQRLLPI [P20R]", 2.8],
  ["PPEPLSQVSMWDQRPQDHQPLLPI [W15P]", 3.9],
  ["PPIPLSQVSMWDQRWQDHQPLLPI [E3I]", 2.48],
  ["PPEPLSQVSMWDQRWQDWQPLLPI [H18W]", 3.02],
  ["PPEPLSQVSMWDQRWQDHQMLLPI [P20M]", 3.03],
  ["PPEPLSQVSMWDQRWQDHQWLLPI [P20W]", 2.33],
  ["PPEPLSLVSMWDQRWQDHQPLLPI [Q7L]", 2.85],
  ["PPEPLSQVSMWDQWWQDHQPLLPI [R14W]", 3.29],
  ["PPEPLSQVSMWDQRWQDHQKLLPI [P20K]", 2.05],
  ["PPEPLSVVSMWDQRWQDHQPLLPI [Q7V]", 3.33],
  ["PPEPLSQVSMWDQRWQDHQPLLPP [I24P]", 3.79],
  ["PPEPESQVSMWDQRWQDHQPLLPI [L5E]", 3.57],
  ["PPEPLSQVSMWDQRWQDHQPGLPI [L21G]", 3.76],
  ["PPEPLSQVWMWDQRWQDHQPLLPI [S9W]", 2.62],
  ["PPEPLSQVSMWDQRWIDHQPLLPI [Q16I]", 2.72],
  ["PPEPLSQVSMWDQRWQDHQPLLVI [P23V]", 2.92],
  ["PPEPLKQVSMWDQRWQDHQPLLPI [S6K]", 2.81],
  ["PFEPLSQVSMWDQRWQDHQPLLPI [P2F]", 1.92],
  ["PPEPLSQVSMWDQRWQDFQPLLPI [H18F]", 2.4],
  ["PPEPLSQVSMWDQRWQDHQPNLPI [L21N]", 3.88],
  ["PPEPLHQVSMWDQRWQDHQPLLPI [S6H]", 2.71],
  ["PPEPLSQVSMWDQKWQDHQPLLPI [R14K]", 3.06]
]}
